Data credit: the supplement of paper PMC13380429

test system: U2OS; assay: cell viability relative to DMSO; higher = less toxic; conditions: 72 h; 1 nM
As shown below, each of these molecules has a reported cell viability value.
Value expressed in %; do not type the unit.

Solved entries (count: 3):
Compound smiles	Meas value
N#Cc1cc(F)cc(-c2nc(-c3ccc(F)cn3)no2)c1	94.9
CC(=O)[C@H]1CC[C@H]2[C@@H]3CC=C4C[C@@H](O)CC[C@]4(C)[C@H]3CC[C@]12C	91.5
C=C[C@@H]1C[C@]1(NC(=O)[C@@H]1C[C@@H](Oc2ncc(OC)c3ccc(Cl)cc23)CN1C(=O)[C@@H](NC(=O)OC(C)(C)C)C(C)(C)C)C(=O)NS(=O)(=O)C1CC1	98.4

Here's the next entry for you.
Look up cell viability: CN(N=O)C(=O)N[C@@H](C=O)[C@@H](O)[C@H](O)[C@H](O)CO 106
